tgt: T1, cpHaloΔ9mer
T1 construct: Large fragment of split, circularly permuted HaloTag7; Made in E. coli; also called cpHalo_9mer; cpHalo156-141
protocol text: ITC; 9mer peptide (30 mM) titrated into cpHaloΔ9mer (0.6 mM), HEPES 50 mM pH 7.3, NaCl 50 mM; three independent measurements
parameter: Kd

Task item: Check the records and state Kd for ARETFQAFR (Free peptide titrated in ITC; also called PEP1) [9mer peptide]
Reply: 5.3 mM
